# Species on record: Rattus norvegicus
# Measurement Description: DrugMatrix - Regimen: Daily Repeat
# Assay type: toxicity, organism-based, Sprague-Dawley
# Parameters: regimen Daily Repeat, gender Male, age 6-8 weeks
# Condition Set: in vivo, po, 0 mg/kg, 72 h, tissue Blood, route oral GAVAGE, dose level Control, time 3 day, vehicle 100 % WATER
Item-by-item account of ERYTHROCYTE COUNT
Give just the numeric value; x10E6/uL need not be written.

{"Compound": "Cn1c(=O)c2[nH]cnc2n(C)c1=O.O", "Measurement Unit": "x10E6/uL", "ERYTHROCYTE COUNT": 5.7}
{"Compound": "CC(C)NCC(O)c1ccc(NS(C)(=O)=O)cc1 (stereo not drawn)", "Measurement Unit": "x10E6/uL", "ERYTHROCYTE COUNT": 5.3}
{"Compound": "C[C@]12C=CC(=O)C=C1CC[C@@H]1[C@@H]2[C@@H](O)C[C@@]2(C)[C@H]1CC[C@]2(O)C(=O)CO", "Measurement Unit": "x10E6/uL", "ERYTHROCYTE COUNT": 5.81}
{"Compound": "Cc1ccc(NC(=O)c2ccc(CN3CCN(C)CC3)cc2)cc1Nc1nccc(-c2cccnc2)n1", "Measurement Unit": "x10E6/uL", "ERYTHROCYTE COUNT": 5.54}
{"Compound": "O.O.O.O.O.O.[Cl-].[Cl-].[Sr+2] [STRONTIUM CHLORIDE HEXAHYDRATE]", "Measurement Unit": "x10E6/uL", "ERYTHROCYTE COUNT": 5.54}
{"Compound": "CN(C)CC[C@@H](c1ccc(Cl)cc1)c1ccccn1", "Measurement Unit": "x10E6/uL", "ERYTHROCYTE COUNT": 5.52}

What value of measured ERYTHROCYTE COUNT is listed for CS(=O)(=O)c1ccc([C@@H](O)[C@@H](CO)NC(=O)C(Cl)Cl)cc1 ?
5.54

What value of measured ERYTHROCYTE COUNT is listed for CCN(CC)CCNC(=O)c1cc(S(C)(=O)=O)ccc1OC [TIAPRIDE] ?
5.54

What value of measured ERYTHROCYTE COUNT is listed for CN1[C@@H]2CC[C@H]1C[C@@H](OC(=O)C(CO)c1ccccc1)C2 (stereo partly drawn) ?
5

What value of measured ERYTHROCYTE COUNT is listed for NNc1nncc2ccccc12 [HYDRALAZINE] ?
5.46

----------
# Organism: Rattus norvegicus
# Measurement Description: DrugMatrix - Regimen: Daily Repeat
# Format: toxicity, organism-based, Sprague-Dawley
# Parameters: regimen Daily Repeat, gender Male, age 6-8 weeks
# Condition Set: in vivo, po, 1500 mg/kg, 120 h, tissue Blood, route oral GAVAGE, dose level High, time 5 day, vehicle .5 % CMC
Parameter: BASOPHIL (%)
Give just the numeric value; % need not be written.

{"Compound": "CC(C)=CCC/C(C)=C/CO [GERANIOL]", "BASOPHIL / %": 0}
{"Compound": "CN(C)[C@@H]1C(O)=C(C(N)=O)C(=O)[C@@]2(O)C(O)=C3C(=O)c4c(O)ccc(Cl)c4[C@@](C)(O)[C@H]3C[C@@H]12 [CHLORTETRACYCLINE]", "BASOPHIL / %": 0}
{"Compound": "O=c1cnn([C@@H]2O[C@H](CO)[C@@H](O)[C@H]2O)c(=O)[nH]1 [6-AZAURIDINE]", "BASOPHIL / %": 0}
{"Compound": "COC(=O)Nc1nc2ccc([S+]([O-])c3ccccc3)cc2[nH]1 (stereo not given) [OXFENDAZOLE]", "BASOPHIL / %": 0}

API: the following record is the query input.
What value of measured BASOPHIL is listed for CC(C)Oc1ccc2c(=O)c(-c3ccccc3)coc2c1 [IPRIFLAVONE] ?
0

# credit: ChEMBL document CHEMBL3885881
